Molecular target: T1, Bzz1-2, P38822
T1 sequence (P38822 568-633, looked up): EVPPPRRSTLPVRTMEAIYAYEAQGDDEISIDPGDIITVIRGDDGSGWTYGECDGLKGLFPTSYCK
Assay: SPOT array
Conditions: median of control spots 4538
Assay endpoint: SPOT intensity

Task: Returns the measured SPOT intensity for the input binder. Input: "ALRRRLPVTRSKINW"
Output: 7

Task: For "VFQFQMPTTPISTKM" then?
Output: 0

Task: For "DAPASKPSVPPRNYF" then?
Output: 0

Task: For "FPGKKSPRLPHRNKK" then?
Output: 5

Task: For "VATSTSPKLPPRGKQ" then?
Output: 0

Task: For "LLIRWLILMPLVGSR" then?
Output: 7

Task: For "LYKRKPILLPDPKPL" then?
Output: 0
